src = ChEMBL document CHEMBL4513216

Reported cytotoxicity at 10 µM is given for each of the following molecules.
# procedure_summary: Toxicity liver stage against HepG2, at 10uM
# Type: cell-based
# Set-up: test concentration 10 uM, cell line HepG2-A16-CD81EGFP
# experimental_parameters: human, HepG2-A16-CD81EGFP cells; read-out: INHIBITION
Express the result in % but write the number alone.

These solved cases illustrate the format of a correct answer.
>>> print(df.to_string())
                                   molecule  result_unit  quantitative_readout
0        Cc1ccc(NC2CCN(C(=O)c3cscn3)CC2)nn1            %                 -8.73
1  O=C(CCO)N1CCC2(CCc3ccc(-c4ccoc4)cc32)CC1            %                  16.1
2  CCCC(Cn1cnc(-c2ccccc2)c1-c1cncn1CC)N(C)C (stereo not drawn)            %                  7.59
3  O=S(=O)(c1cccnc1)N1C[C@@H]2COC[C@]2(CN2CCOCC2)C1            %                  5.86
4  O=C(O)CC1CN(S(=O)(=O)c2cccc(F)c2)c2ccccc21 (stereo not drawn)            %                 -4.17

## Task Could you please provide reported cytotoxicity at 10 µM for CSCC(CCO)NC(=O)Nc1cccc(Br)c1 (stereo not drawn) ? Thanks!
## Result -7.69

## Task Could you please provide reported cytotoxicity at 10 µM for CCOCc1ccc(NC(=O)NC2CCCn3nc(CC)nc32)cc1 (stereo not drawn) ? Thanks!
## Result -7.68

## Task Could you please provide reported cytotoxicity at 10 µM for CC(=O)N1CCCN(Cc2ccon2)c2ccccc21 ? Thanks!
## Result 0.616

## Task Could you please provide reported cytotoxicity at 10 µM for Cc1nn(C)c(N2CCOCC2)c1CNCc1nccs1 ? Thanks!
## Result -6.33

## Task Could you please provide reported cytotoxicity at 10 µM for CC(C)c1nc(C(=O)N2CCCC(n3cncn3)C2)c[nH]1 (stereo not drawn) ? Thanks!
## Result -2.48

## Task Could you please provide reported cytotoxicity at 10 µM for COc1ccc(NS(=O)(=O)C=c2[nH]c(=O)n3cccc3c2=O)cc1Cl ? Thanks!
## Result -1.47

## Task Could you please provide reported cytotoxicity at 10 µM for CN(CC(C)(C)C)c1ccc(C(=O)NCCCc2ccccn2)cn1 ? Thanks!
## Result -49.1

## Task Could you please provide reported cytotoxicity at 10 µM for CC(CNCc1ccc(Cl)cc1)Oc1ccccn1 (stereo not drawn) ? Thanks!
## Result 5.01

## Task Could you please provide reported cytotoxicity at 10 µM for Fc1cccc(Cc2cncc(C3CCCN3C3CCOCC3)n2)c1 (stereo not drawn) ? Thanks!
## Result -0.685

## Task Could you please provide reported cytotoxicity at 10 µM for CC(C)Oc1ccccc1CNC(=O)N1CCC(n2cncn2)CC1 ? Thanks!
## Result 2.38

## Task Could you please provide reported cytotoxicity at 10 µM for COc1ncccc1CNCc1c(C(C)C)nn(C)c1OC ? Thanks!
## Result -1.68

## Task Could you please provide reported cytotoxicity at 10 µM for Cc1cc(C)nc(NC2CCCN(CCCc3ccccc3)C2)n1 (stereo not drawn) ? Thanks!
## Result 2.49

## Task Could you please provide reported cytotoxicity at 10 µM for CC(C)(C)c1nnc(CN2CCn3c(nnc3C3CC3)C2)o1 ? Thanks!
## Result 4.45

## Task Could you please provide reported cytotoxicity at 10 µM for Cc1cc(CN(C)C(=O)C(c2ccccc2)N2CCSCC2)no1 (stereo not drawn) ? Thanks!
## Result -1.49

## Task Could you please provide reported cytotoxicity at 10 µM for Cc1ncsc1C(=O)N(Cc1cccnc1)C1CC1 ? Thanks!
## Result -4.84

## Task Could you please provide reported cytotoxicity at 10 µM for CN1CCOC(C(=O)Nc2nc(-c3ccccc3F)n[nH]2)C1 (stereo not drawn) ? Thanks!
## Result 8.65

## Task Could you please provide reported cytotoxicity at 10 µM for Cc1ncc(C(=O)N2CCC(C(=O)NC3CCCC3)C2)c(C)n1 (stereo not drawn) ? Thanks!
## Result 6.3

## Task Could you please provide reported cytotoxicity at 10 µM for CNC(=O)N(C)CC1(c2ccc(Br)cc2)CC1 ? Thanks!
## Result -9.6

## Task Could you please provide reported cytotoxicity at 10 µM for CCN1CC2(CC1=O)CN(C(=O)NC(C)C)CCN(C(=O)NC(C)C)C2 ? Thanks!
## Result -1.73

## Task Could you please provide reported cytotoxicity at 10 µM for CCN(CC)C1CCN(C(=O)NCc2c(C)noc2C)CC1 ? Thanks!
## Result -3.71

## Task Could you please provide reported cytotoxicity at 10 µM for COCCCNC(=O)Nc1cc(-c2ccccc2C)nn1CCO ? Thanks!
## Result -0.267
